# System: HeLa cells
# Test Details: Measurement of the cell cycle inhibition in HeLa cells
# Assay type: cell-based
# Test Parameters: HeLa B cells, 20 h incubation with compound; FACS ratio G0/G1 to G2/M vs DMSO; concentration at which 50% of cells are in cell cycle arrest
# Protocol: Measurement of the Cell Cycle Inhibition in HeLa Cells—Test Procedure: […] The supernatant is removed and the cells lysed with 0.5 ml RNase Buffer (10 mM NaCitrate, 0.1% Nonidet NP40, 50 μg/ml RNase, 10 μg/ml Propidium iodide) per well. […] Samples are measured in a FACS machine (Beckton Dickinson) at the following settings: […] The ratio of cells in G0/G1-phase to G2/M phase is calculated and compared to the value for the controls (DMSO) only. […]
Experimental Readout: IC50 (nM)

Known results for compounds:
CCC(C)Nc1nc(-n2cccn2)nc(Cl)c1-c1ccc(F)cc1F (centres unmarked) : 45
CC(C)Nc1nc(-n2ccc(N)n2)nc(Cl)c1-c1c(F)cc(F)cc1F : 47
CC(C)Nc1nc(-n2cccn2)nc(Cl)c1-c1c(F)cc(F)cc1F : 33

[A] Fc1cc(F)c(-c2c(Cl)nc(-n3ccnn3)nc2N2CC=CCC2)c(F)c1
[B] CC1CCN(c2nc(-n3cncn3)nc(Cl)c2-c2c(F)cccc2F)CC1
Ask: Please indicate which item has the smaller measured IC50: A versus B Reply briefly: the label of your chosen item.
Reply: A
